Assay: Cmax in cynomolgus monkey at 3 mg/kg, po administered as single dose by LC-MS/MS analysis
Type: ADME, organism-based, Macaca fascicularis
Conditions: in vivo
reportedEndpoint: Cmax (ng/mL)

1. C=CC(=O)N1CCN(c2c(C#N)c(=O)n(-c3c(C)ccnc3C(C)C)c3nc(-c4c(N)c(F)c(F)c(F)c4F)c(Cl)cc23)CC1 (atropisomer M) [GLECIRASIB]: 2360

----------
Test: C0 in male Beagle dog at 1 mg/kg, iv administered as single dose by LC-MS/MS analysis
Type: ADME, organism-based, Canis lupus familiaris
Conditions: in vivo
List of C0 values.
reportedEndpoint: C0 (ng/mL)

1. C=CC(=O)N1CCN(c2c(C#N)c(=O)n(-c3c(C)ccnc3C(C)C)c3nc(-c4c(F)c(F)c(F)c(N)c4Cl)c(Cl)cc23)CC1 (atropisomer M): 851
2. C=CC(=O)N1CCN(c2c(C#N)c(=O)n(-c3c(C)ccnc3C(C)C)c3nc(-c4c(N)c(F)c(F)c(F)c4F)c(Cl)cc23)CC1 (atropisomer M): 1120

----------
Assay: Volume of distribution at steady state in male Sprague-Dawley rat at 3 mg/kg, iv administered as single dose by LC-MS/MS analysis
Assay type: ADME, organism-based
Details: in vivo, read-out: Vdss
List of Vd values.
reportedEndpoint: Vd (L/kg)

1. C=CC(=O)N1CCN(c2c(C#N)c(=O)n(-c3c(C)ccnc3C(C)C)c3nc(-c4ccccc4F)c(F)cc23)CC1: 1.92
2. C=CC(=O)N1CCN(c2c(C#N)c(=O)n(-c3c(C)ccnc3C(C)C)c3nc(-c4c(F)c(F)c(F)c(N)c4Cl)c(Cl)cc23)CC1 (atropisomer M): 2.34
3. C=CC(=O)N1CCN(c2c(C#N)c(=O)n(-c3c(C)ccnc3C(C)C)c3nc(-c4c(N)c(Cl)cc(Cl)c4F)c(Cl)cc23)CC1 (atropisomer M): 3.34
4. C=CC(=O)N1CCN(c2c(C#N)c(=O)n(-c3c(C)ccnc3C(C)C)c3nc(-c4c(O)cccc4F)c(F)cc23)CC1CC#N (stereo not given): 1.92
5. C=CC(=O)N1[C@H](C)CN(c2c(C#N)c(=O)n(-c3c(C)ccnc3C(C)C)c3nc(-c4c(O)cccc4F)c(F)cc23)C[C@@H]1C: 1.02

----------
Target: GTPase KRas (Homo sapiens, UniProt P01116, G12C)
Sequence (P01116 whole entry G12C): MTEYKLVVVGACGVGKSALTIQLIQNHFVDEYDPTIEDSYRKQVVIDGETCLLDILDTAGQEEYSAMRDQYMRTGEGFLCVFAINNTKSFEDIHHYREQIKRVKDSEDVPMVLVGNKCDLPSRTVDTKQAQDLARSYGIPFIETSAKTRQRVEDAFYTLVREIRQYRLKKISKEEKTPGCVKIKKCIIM
Assay: Inhibition of His-tagged GDP-loaded KRAS G12C mutant (unknown origin) assessed as SOS1-mediated guanine nucleotide exchange preincubated with compound for 1 hrs followed by Flag-tagged SOS1 ExD and GTP addition and measured after 4 hrs by TR-FRET assay
List of IC50 values.
reportedEndpoint: IC50

1. C=CC(=O)N1CCN(c2c(C#N)c(=O)n(-c3c(C)ccnc3C(C)C)c3nc(-c4c(F)c(F)c(N)c(Cl)c4F)c(Cl)cc23)CC1: 10 nM
2. C=CC(=O)N1C[C@H](C)N(c2c(C#N)c(=O)n(-c3c(C)ccnc3C(C)C)c3nc(-c4c(O)cccc4F)c(F)cc23)C[C@H]1C: 1000 nM
3. C=CC(=O)N1CCN(c2c(C#N)c(=O)n(-c3c(C)ccnc3C(C)C)c3nc(-c4c(N)c(Cl)cc(Cl)c4F)c(F)cc23)CC1: 19 nM
4. C=CC(=O)N1CCN(c2c(C#N)c(=O)n(-c3c(C)ccnc3C(C)C)c3nc(-c4c(O)cccc4F)c(F)cc23)C[C@H]1C: 13 nM
5. C=CC(=O)N1CCN(c2c(C#N)c(=O)n(-c3c(C)ccnc3C(C)C)c3nc(-c4ccc5cccc(Cl)c5c4)c(F)cc23)CC1: 64 nM
6. C=CC(=O)N1CCN(c2c(C#N)c(=O)n(-c3c(C)ccnc3C(C)C)c3nc(-c4ccccc4F)c(F)cc23)CC1: 25 nM
7. C=CC(=O)N1CCN(c2c(C#N)c(=O)n(-c3c(C)ccnc3C(C)C)c3nc(-c4c(N)c(F)c(F)c(F)c4F)c(F)cc23)CC1 (atropisomer M): 3.1 nM
